Data origin, for the record: PubChem BioAssay (NCI)

- Experiment Notes: NCI Yeast Anticancer Drug Screen. Data for the cln2 rad14 strain (AID 165);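 further: 0% = growth equal to vehicle treated cultures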
- Assay Setup: S. cerevisiae cln2 rad14 strain, at 5.0 µM (retest, dose inferred, filed as 0.5), hits give high values
The panel holds about 79,000 compounds, 15% with a hit somewhere; the sample as a whole holds those more often.
Item-by-item account of growth inhibition
Record the value in %, omitting the unit from your answer.

COC(=O)[C@]1(C)CCC[C@]2(C)[C@H]3CC4OO[C@@]3(CC[C@H]21)[C@H]1O[C@@]41C(C)C | 92
CCC[CH2][Sn]1([CH2]CCC)[O]CCN2CCN(CC[O]1)CC2 | -5
[Cl][Sn]([Cl])([c]1ccccc1)[c]1ccccc1.c1ccc2nc(-c3ccc4ccccc4n3)ccc2c1 | 6
CCN1C(C)N1P(=S)(OC1CC(C)(C)N(O)C(C)(C)C1)OC1CC(C)(C)N(O)C(C)(C)C1 (stereo not given) | -3

Next:
Could you share which growth inhibition value was measured for O=NNc1c[nH]c(=O)[nH]c1=O ?
-5

====

- Experiment Notes: NCI Yeast Anticancer Drug Screen. Data for the rad50 strain (AID 155);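 further: 0% = growth of vehicle-only cultures of the same strain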
- Assay Setup: S. cerevisiae rad50 strain growth inhibition; at 50.0 µM
Compounds without any hit were thinned out: in the full panel of roughly 79,000, 15% have a hit. The source made the active and inactive calls. Cut-off read from the data, not from the text of the source: active = growth inhibition above about 70%; inactive = the rest.
Form entry, call: pick from active, inactive

A selection of reference data follows.
CCC[As](=O)(O)CC(C)C | inactive
CCN1C(=O)NC(=O)C(CC)(N2CCCCC2)C1=O (stereo unspecified) | inactive
CC[CH2][Sn]([CH2]CC)[CH2]CC.CC[CH2][Sn]([CH2]CC)[CH2]CC | active
CCOP(=O)(NCCc1ccccc1)OCC | inactive

Recorded test outcome, item Cc1ccccc1-n1c(CCl)nc2ccc(Br)cc2c1=O
inactive

Recorded test outcome, item COc1ccc2nc3ccccc3c(NCCCCN(C)CCCl)c2c1
active

====

- Experiment Notes: NCI Yeast Anticancer Drug Screen. Data for the bub3 strain (AID 167)
- Assay Setup: S. cerevisiae bub3 mutant strain, at 50.0 µM (retest, dose inferred, filed as 5.0)
This is part of a sample that, as a whole, favours compounds with a hit. Of some 79,000 tested, about 15% had one in any assay. Calls of active or inactive are those of the source. Cut-off read from the data, not from the text of the source: active = growth inhibition above about 70%; inactive = the rest.
Form entry, call: pick from 1.0 (active), 0.0 (inactive)

A selection of reference data follows.
IC(I)=C(I)I | 1.0
CC[CH](C)[Sn](=[O])[c]1ccccc1 (stereo not drawn) | 1.0
CCCCCCCCCCCCCC(=O)[O][Hg][c]1ccccc1 | 1.0
O=C(Cc1c2ccccc2cc2c1ccc1ccccc12)N(CCCl)CCCl | 1.0

Recorded test outcome, item CCCCOOC(=O)c1ccccc1C(=O)OOCCCC
1.0

Recorded test outcome, item COc1c(Cl)[c]([Hg][O]C(C)=O)c(NCC(C)=O)c(OC)[c]1[Hg][O]C(C)=O
1.0

Recorded test outcome, item S=C1NCCN1
0.0

Recorded test outcome, item COC(C)(C)[CH]([Hg][Cl])n1ccccc1=O (stereo not drawn)
1.0

Recorded test outcome, item CCC[CH2][Sn]1([CH2]CCC)[O]C(=O)c2cccnc2[S]1
1.0

====

- Experiment Notes: NCI Yeast Anticancer Drug Screen. Data for the rad50 strain (AID 155);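 further: 0% = growth of vehicle-only cultures of the same strain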
- Assay Setup: S. cerevisiae rad50 strain growth inhibition; at 50.0 µM; hits give high values
About 79,000 compounds went through this panel and 15% of them were active in at least one assay; those are over-represented in the sample as a whole.
Item-by-item account of growth inhibition
Record the value in %, omitting the unit from your answer.

O=C1C(Cl)=C(Cl)C(=O)c2ccccc21 | 97.8
CCCCN1C(=O)C(=C/C=C/C=C2\Oc3ccccc3N2CCCS(=O)(=O)O)C(=O)N(CCCC)C1=S | 18
C=CCOC(N)=O | 6.85
COc1ccc2nc3ccccc3nc2c1 (tested in a mixture with another compound) | 30.2
CCCCCCNC(=O)C(C)Br (configuration not stated) | -7.35

Could you share which growth inhibition value was measured for CN(C)c1ccc2c(c1)Cc1ccccc1-2 ?
1

Could you share which growth inhibition value was measured for [Ni+2].[S-]CC[S-] ?
0.4

====

- Experiment Notes: NCI Yeast Anticancer Drug Screen. Data for the cln2 rad14 strain (AID 165);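 further: 0% = growth equal to vehicle treated cultures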
- Assay Setup: S. cerevisiae cln2 rad14 strain, at 50.0 µM, hits give high values
- Protocol: Growth inhibition of yeast strains with defined genetic alterations is measured as a screen for potential anti-cancer activity. Selected strains with alterations in DNA damage repair or cell cycle control were exposed to compounds and growth inhibition was measured relative to vehicle treated controls. The strain used in this assay is cln2 rad14
Compounds without any hit were thinned out: in the full panel of roughly 79,000, 15% have a hit.
Item-by-item account of growth inhibition
Record the value in %, omitting the unit from your answer.

These recorded examples may help you get a feel for the data.
CN1C(=O)NC(C)(c2cccc(N(CCCl)CCCl)c2)C1=O (stereo not given) | 8.2
C[CH2][Pb]([CH2]C)([CH2]C)[n]1ccnc1 | -29.3
O=[N+]([O-])c1ccc(OCc2ccc(Cl)c(S(=O)(=O)F)c2)c(Cl)c1 | -24.4
CCCOCC(O)C[As](=O)(O)c1cccc(Cl)c1 (stereo not given) | -4.4
O=CC=O | 21.6
CN(C)CCNC(=O)c1cc(COC(=O)N(CCCl)CCCl)ccc1[N+](=O)[O-] | 28.1
ClCCCBr | 13.3
NC(=O)c1c([N+](=O)[O-])ccc(N(CCCl)CCCl)c1[N+](=O)[O-] | 4.75

Could you share which growth inhibition value was measured for CC1=CC(C(=O)O)P(C)(=O)C1 (stereo not given) ?
-11.6

Could you share which growth inhibition value was measured for C1CN1Sc1nc(SN2CC2)nc(SN2CC2)n1 ?
-73

Could you share which growth inhibition value was measured for Oc1c(Cl)c(Cl)c(O)c(Cl)c1Cl ?
95.7

Could you share which growth inhibition value was measured for c1ccc(C2=NC(c3ccccc3)N3CC23c2ccccc2)cc1 (stereo not given) ?
-7.6

Could you share which growth inhibition value was measured for CCCOC(=O)c1cncn1C(C)c1ccccc1 (stereo not given) ?
10.7

Could you share which growth inhibition value was measured for C[CH2][Sn]([c]1ccccc1)[c]1ccccc1 ?
3.65

Could you share which growth inhibition value was measured for CCCCCCOC(=O)C(N)Cc1ccc(OC)c(N(CCCl)CCCl)c1 (stereo not given) ?
5.7

Could you share which growth inhibition value was measured for [Mn+3].[O-][Cl+3]([O-])([O-])O.[O-]c1ccccc1C=NCCN1CC1.[O-]c1ccccc1C=NCCN1CC1 ?
87.1

Could you share which growth inhibition value was measured for CC1(C)COP(=O)(c2ccccc2)N1 (stereo not given) ?
-24.4

Could you share which growth inhibition value was measured for O=C([O-])CC(=O)[O-].[Cu+2].[OH3+].[OH3+] ?
-19.6

Could you share which growth inhibition value was measured for O=C1C=CC(=O)c2c(O)cccc21 ?
15.4

Could you share which growth inhibition value was measured for O=C1C=CC(=Nc2cc(Cl)c(O)c(Cl)c2)C=C1 ?
20.1

Could you share which growth inhibition value was measured for O=c1[nH]c2ccc([As](=O)(O)O)cc2[nH]1 ?
-5.2

Could you share which growth inhibition value was measured for O=C(O)C(CSC(c1ccccc1)(c1ccccc1)c1ccccc1)N=Cc1cccs1 (stereo not given) ?
-33.9

Could you share which growth inhibition value was measured for CC1CCC(OC(=O)CCl)CC1 (stereo not given) ?
7.45

Could you share which growth inhibition value was measured for Nc1ccccc1Nc1ccccc1C(=O)[O-].Nc1ccccc1Nc1ccccc1C(=O)[O-].[Zn+2] ?
10.2

Could you share which growth inhibition value was measured for COP1(=O)Oc2ccccc2C(=O)C(C(F)(F)F)(C(F)(F)F)O1 (stereo not given) ?
5.05

====

- Experiment Notes: NCI Yeast Anticancer Drug Screen. Data for the sgs1 mgt1 strain (AID 161);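 further: 0% = growth of cultures given vehicle only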
- Assay Setup: S. cerevisiae sgs1 mgt1 strain, at 50.0 µM, hits give high values
The panel holds about 79,000 compounds, 15% with a hit somewhere; the sample as a whole holds those more often.
Recorded Metric: growth inhibition (%)
Record the value in %, omitting the unit from your answer.

S=C=[N][Sn]([N]=C=S)([c]1ccccc1)[c]1ccccc1.c1ccc2nc(-c3ccc4ccccc4n3)ccc2c1 | 91.5
CCN(CC)C(=O)N1CN(c2ccccc2)C2(CCN(CCCC3(c4ccc(F)cc4)OCCO3)CC2)C1=O | 48
CC(C)=CC1C(C(=O)OCc2ccc(Cl)c(Cl)c2)C1(C)C (stereo not given) | 8.9
CCOC(=O)CNC(=O)C1C2c3ccccc3C(c3ccccc32)C1C(=O)O (stereo not given) | 96
COc1cc(C2CNCc3cc(OC)c(O)cc32)ccc1O (stereo not given) | -11.1

Could you share which growth inhibition value was measured for CN(C)C(=S)Oc1c(Cl)cc(S(=O)(=O)F)cc1Cl ?
15.2

====

- Experiment Notes: NCI Yeast Anticancer Drug Screen. Data for the sgs1 mgt1 strain (AID 161);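 further: 0% = growth of cultures given vehicle only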
- Assay Setup: S. cerevisiae sgs1 mgt1 strain, at 50.0 µM
Compounds without any hit were thinned out: in the full panel of roughly 79,000, 15% have a hit. The source made the active and inactive calls. Rule as the data show it: active = growth inhibition above about 70%; inactive = the rest.
Form entry, call: pick from true (1) = active, false (0) = inactive

A selection of reference data follows.
CC(C)CCC1(CCSC(=O)S)C(=O)NC(=O)NC1=O | false (0)
O=[N+]([O-])O.[NH-]C1CCCCC1[NH-].[NH-]C1CCCCC1[NH-].[OH-].[OH-].[Pt+4].[Pt+4] (configuration not stated) | false (0)
CCOC(OC1=C(C#N)CCCC1)C(CC)[Se]c1ccccc1 (configuration not stated) | false (0)

Recorded test outcome, item Nc1ccccc1C(=O)O
false (0)

Recorded test outcome, item O=C1CCC(=O)N1[N+](=O)[O-]
false (0)
